- EXPERIMENT_NOTES: yeast growth modulation, basal conditions, primary screen, YJM789 clinical isolate, OD600, 24 h (AID 1089);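 further: growth of clinical yeast isolate S. cerevisiae YJM 789 seeded 1000 cells per well; test concentration not given here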
- TEST_CONDITIONS: S. cerevisiae YJM789 growth, higher = more signal, called active from +8 up or from −8 down
ATTRIBUTE_MEASURED: z-score

COMPOUND	RECORDED_VALUE
C=C(COC)C(=O)CC[C@@H](OC(=O)c1cccnc1)c1ccc(CO)o1	0.692
[N-]=[N+]=NCc1ccccc1C[C@@]1(C(=O)N2CCOCC2)N=C(c2ccc(OCCCO)cc2)O[C@@H]1c1ccccc1CN=[N+]=[N-]	0.466
O=C1O[C@H](c2ccccc2)[C@H](c2ccccc2)N2[C@H]1[C@@H](C(=O)Nc1nc3ccccc3s1)[C@]1(C(=O)Nc3ccccc31)[C@H]2c1ccc(O)cc1	0.474
CCCCC(CC)C(O)C1C=CC2C(=O)N(c3ccccc3)C(=O)C2N1Nc1ccccc1 (configuration not stated)	0.549
C=CCOC(=O)[C@@H]1[C@H]2C(=O)O[C@H](c3ccccc3)[C@H](c3ccccc3)N2[C@H](c2ccc(OCCOC(=O)[C@@H]3C[C@@H]4C(=O)N[C@@H](Cc5ccccc5)C(=O)N4[C@@H]3c3cccc(OCCO)c3)cc2)[C@@]12C(=O)Nc1ccc(I)cc12	1.39
COc1ccc(CCNC(=O)[C@@]2(c3ccc([N+](=O)[O-])cc3)CC(=O)N(CC34CC5CC(CC(C5)C3)C4)[C@@H]2c2ccc(CO)cc2)cc1	0.719
COCCOC(=O)N1C(=O)[C@@]2(c3cc(C#CCNC(N)=O)ccc31)[C@H](c1ccc(OCCO)cc1)N1[C@H](c3ccccc3)[C@H](c3ccccc3)OC(=O)[C@H]1[C@@H]2C(=O)N1CCc2cc(OC)c(OC)cc2C1	1.46
